biological target: T1, proprotein convertase PC1; assay: enzyme inhibition, pERTKR-MCA hydrolysis (fluorescence), competitive Ki
T1 construct: also called PC3
T1 sequence (P63239 111-753): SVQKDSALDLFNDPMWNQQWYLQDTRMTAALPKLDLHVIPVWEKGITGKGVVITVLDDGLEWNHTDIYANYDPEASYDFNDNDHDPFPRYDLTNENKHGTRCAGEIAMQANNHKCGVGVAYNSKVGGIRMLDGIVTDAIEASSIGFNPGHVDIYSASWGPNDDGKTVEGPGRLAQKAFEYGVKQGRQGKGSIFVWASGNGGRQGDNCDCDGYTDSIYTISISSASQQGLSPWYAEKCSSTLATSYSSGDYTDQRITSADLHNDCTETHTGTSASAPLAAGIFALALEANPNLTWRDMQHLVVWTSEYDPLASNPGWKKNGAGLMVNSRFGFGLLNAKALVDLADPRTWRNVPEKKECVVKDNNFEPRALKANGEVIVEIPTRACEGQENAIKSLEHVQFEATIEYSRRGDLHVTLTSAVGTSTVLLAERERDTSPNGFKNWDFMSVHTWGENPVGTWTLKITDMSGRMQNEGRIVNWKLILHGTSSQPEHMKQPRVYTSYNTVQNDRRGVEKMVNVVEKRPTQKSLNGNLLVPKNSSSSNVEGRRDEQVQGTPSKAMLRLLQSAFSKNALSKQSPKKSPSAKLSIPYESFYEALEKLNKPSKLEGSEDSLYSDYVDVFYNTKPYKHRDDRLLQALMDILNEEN
Non-standard residues stand in square brackets, D forms with d. No end group written: not given here.
Lab note: anything with Ki below 5 µM is marked class 1; values at 5 µM or higher are marked class 0.

- H-RRRRRR-OH (no terminal modifications; also called hexamer) [Hexa-L-arginine]: class 1
- RRRRRRR (no terminal modifications; also called heptamer) [Hepta-L-arginine]: class 0
- RRRRRRRRR (no terminal modifications; also called nonamer) [Nona-L-arginine]: class 0
- RRRRR (no terminal modifications; also called pentamer; pentameric polyarginine) [Penta-L-arginine]: class 0
- [dR][dR][dR][dR][dR][dR] (also called D6R; D-hexa-arginine) [Hexa-D-arginine]: class 0
- H-RRRR-OH (no terminal modifications; also called tetramer) [Tetra-L-arginine]: class 0
